Test system Kappa-type opioid receptor (Cavia porcellus, UniProt P41144), Ki listed for each of the molecules.
quantity kind: Ki

>>> obs_value("CN1CC[C@]23c4c5ccc(O)c4O[C@H]2[C@]2(CC[C@@]3(O)[C@H]1C5)O[C@@H]1N3[C@@H](OC1(C)C)C(C)(C)O[C@H]32")
"> 1 µM"
>>> obs_value("Oc1ccc2c3c1O[C@H]1[C@]4(CC[C@@]5(O)[C@@H](C2)N(CC2CC2)CC[C@]315)O[C@@H]1CO[C@@H]2CO[C@H]4N21")
"0.00386 µM"
>>> obs_value("Oc1ccc2c3c1O[C@H]1[C@]4(CC[C@@]5(O)[C@@H](C2)N(Cc2ccccc2)CC[C@]315)O[C@H]1CO[C@H]2CO[C@@H]4N21")
"> 1 µM"
>>> obs_value("CC1(C)O[C@@H]2N3[C@H]1O[C@]1(CC[C@@]4(O)[C@H]5Cc6ccc(O)c7c6[C@@]4(CCN5Cc4ccccc4)[C@H]1O7)[C@@H]3OC2(C)C")
"> 1 µM"
>>> obs_value("Oc1ccc2c3c1O[C@H]1[C@]4(CC[C@@]5(O)[C@@H](C2)N(Cc2ccccc2)CC[C@]315)O[C@@H]1CO[C@@H]2CO[C@H]4N21")
"> 1 µM"
>>> obs_value("CC1(C)O[C@@H]2N3[C@H]1O[C@]1(CC[C@@]4(O)[C@H]5Cc6ccc(O)c7c6[C@@]4(CCN5CC4CC4)[C@H]1O7)[C@@H]3OC2(C)C")
"0.0242 µM"
>>> obs_value("CC(C)CN1CC[C@]23c4c5ccc(O)c4O[C@H]2[C@]2(CC[C@@]3(O)[C@H]1C5)O[C@H]1CO[C@H]3CO[C@@H]2N31")
"> 1 µM"

----------
protocol text: Selectivity ratio of Ki for mu opioid receptor in mouse whole brain without cerebellum to Ki for kappa opioid receptor in guinea pig cerebellum
quantity kind: Ratio Ki

>>> obs_value("Oc1ccc2c3c1O[C@H]1[C@]4(CC[C@@]5(O)[C@@H](C2)N(CC2CC2)CC[C@]315)O[C@H]1CO[C@H]2CO[C@@H]4N21")
1.15
>>> obs_value("Oc1ccc2c3c1O[C@H]1[C@]4(CC[C@@]5(O)[C@@H](C2)N(CC2CC2)CC[C@]315)O[C@@H]1CO[C@@H]2CO[C@H]4N21")
2.24

----------
Overview of recorded pKi for various compounds
target or test system: Delta-type opioid receptor (Mus musculus)
Sequence (P32300 whole entry): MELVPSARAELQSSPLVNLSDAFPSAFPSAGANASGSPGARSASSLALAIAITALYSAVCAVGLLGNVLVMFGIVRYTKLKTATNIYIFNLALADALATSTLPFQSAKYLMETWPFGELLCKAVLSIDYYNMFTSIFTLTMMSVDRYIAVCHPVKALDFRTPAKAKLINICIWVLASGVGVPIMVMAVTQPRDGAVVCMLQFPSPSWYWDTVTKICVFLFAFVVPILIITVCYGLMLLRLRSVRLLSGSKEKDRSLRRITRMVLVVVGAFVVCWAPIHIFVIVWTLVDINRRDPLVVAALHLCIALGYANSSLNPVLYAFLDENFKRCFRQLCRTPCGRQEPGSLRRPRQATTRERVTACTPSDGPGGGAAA
protocol text: Displacement of [3H]DPDPE from delta opioid receptor in mouse whole brain without cerebellum
pKi: −log10 of the molar value.
quantity kind: pKi

>>> obs_value("CC1(C)O[C@H]2N3[C@@H]1O[C@]1(CC[C@@]4(O)[C@H]5Cc6ccc(O)c7c6[C@@]4(CCN5Cc4ccccc4)[C@H]1O7)[C@H]3OC2(C)C")
"< 6.00"
>>> obs_value("CC(C)CN1CC[C@]23c4c5ccc(O)c4O[C@H]2[C@]2(CC[C@@]3(O)[C@H]1C5)O[C@H]1N3[C@H](OC1(C)C)C(C)(C)O[C@@H]32")
"< 6.00"
>>> obs_value("Oc1ccc2c3c1O[C@H]1[C@]4(CC[C@@]5(O)[C@@H](C2)N(Cc2ccccc2)CC[C@]315)O[C@@H]1CO[C@@H]2CO[C@H]4N21")
"< 6.00"

// provenance: ChEMBL document CHEMBL2203184
